meta.source: patent US20230348603A1

Target: T1, Human VSIG4-L-Fc (human)
T1 construct: also called hVSIG4-L-Fc; hVSIG4-L
T1 sequence (chain, as listed by the source limits assumed): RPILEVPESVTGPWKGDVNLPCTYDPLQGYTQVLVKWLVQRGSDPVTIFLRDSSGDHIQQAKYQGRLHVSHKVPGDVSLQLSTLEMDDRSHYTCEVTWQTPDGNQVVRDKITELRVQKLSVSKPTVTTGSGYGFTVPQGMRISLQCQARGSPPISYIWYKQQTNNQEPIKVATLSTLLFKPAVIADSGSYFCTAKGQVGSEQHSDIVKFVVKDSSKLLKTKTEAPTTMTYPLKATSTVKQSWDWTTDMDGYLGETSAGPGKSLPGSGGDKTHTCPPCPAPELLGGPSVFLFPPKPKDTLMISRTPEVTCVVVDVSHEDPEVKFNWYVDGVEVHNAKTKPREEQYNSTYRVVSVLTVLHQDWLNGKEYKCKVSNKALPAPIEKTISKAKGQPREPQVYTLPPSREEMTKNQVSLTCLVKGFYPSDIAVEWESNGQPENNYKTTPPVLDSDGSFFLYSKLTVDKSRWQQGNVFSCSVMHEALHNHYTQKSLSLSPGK
Test: BLI cross-blocking on hVSIG4-L-Fc, competitor 14C05 first
measured_metric: binding signal (nm shift) (nm)
Field format: number, assumed nm, no unit text.

10E8.B6 mouse/human chimeric IgG4 (S228P) kappa (antibody, V domains shown) VH: EVQLQQSGPELMKPGDSVKMSCKASGYTFTDYYMDWVKQSHGKSLEWIGYIYPNIDFTTYNQKFKGKATLTVDKSSNTAYMELHSLTSEDSAVYYCTRRDLPLHGSAYYFDYWGQGTTLTVSS VL: DIVMSQSPSSLAVSAGEKVTMSCKSSQSLLNSRTRKNYLAWYQQKPGQSPKLLIYWASTRESGVPDRFTGSGSGTDFTLTISSVQAEDLAVYYCKQSYDLFTFGSGTKLEIKR	0.11

Pending binder:
Task item: Tell me the measured binding signal (nm shift) of A1 anti-VSIG4 antibody, human IgG4 (S228P) kappa (antibody, V domains shown, variable regions from U.S. Pat. Publ) VH: QVTLKESGPTLVKPTQTLTLTCTFSGISLTTSGMGVGWIRQPPGKALEWLADIFWDDNKYYNPSLKSRLTITKDTSKNQVVLTMTNMDPVDTATYYCVRVYYKNDGYFDVWGKGTTVTVSS VL: DIVLTQSPLSLPVTLGQPASISCRASKSVTTSGYSFMHWYQQRPGQSPRLLIYLASNLEPGVPDRFSGSGSGTDFTLKISRVEAEDVGVYYCQQSGELPYTFGQGTKLEIKR , please.
Reply: 0.55
